- experimental target: G-protein coupled receptor 6 (Homo sapiens, UniProt P46095)
- Sequence (P46095 whole entry): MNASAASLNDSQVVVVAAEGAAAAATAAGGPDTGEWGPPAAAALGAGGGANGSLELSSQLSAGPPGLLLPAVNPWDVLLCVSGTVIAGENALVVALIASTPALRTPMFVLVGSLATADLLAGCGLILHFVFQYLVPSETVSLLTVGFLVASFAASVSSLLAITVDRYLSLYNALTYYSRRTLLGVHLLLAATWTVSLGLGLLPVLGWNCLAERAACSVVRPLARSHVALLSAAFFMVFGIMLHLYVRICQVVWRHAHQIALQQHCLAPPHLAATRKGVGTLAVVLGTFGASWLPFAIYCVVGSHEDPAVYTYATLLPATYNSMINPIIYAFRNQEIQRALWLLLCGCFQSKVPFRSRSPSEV
- experimental protocol: Modulation activity at GPR6 receptor (unknown origin) expressed in CHO-K1 cells assessed as inhibition of constitutive cAMP activity incubated for 45 mins in presence of 300 uM IBMX by Perkin Elmer Lance HTRF Ultrac-AMP assay
- Format: functional, cell-based
- assay conditions: cho-k1
Could you please mark t for values of IC50 below 80 nM and f for values at or above it?

Would you please look over these solved cases?
In [3]: df
Out[3]:
                                   compound  assigned_category
0  CC(=O)N1CCc2nc(N3CCN(Cc4ccc(C#N)cc4F)CC3)c(NC(C)C)nc2C1                  f
1  CCC(=O)N1CCc2nc(N3CCN(Cc4ccc(F)cc4F)CC3)c(N[C@H]3CCOC3)nc2C1                  t
2  CC(C)Nc1nc2c(nc1N1CCC(Oc3ccc(F)cc3F)CC1)CN(CC(F)F)CC2                  f
3  COC(=O)N1CCc2nc(N3CCC(Oc4ccc(F)cc4F)CC3)c(NC(C)C)nc2C1                  f

**Q:** Does the reported IC50 of the following compound sit strictly below 80 nM? COc1ccc(OC2CCN(c3nc4c(nc3NC(C)C)CN(C(C)=O)CC4)CC2)c(F)c1
**A:** t

**Q:** IC50 strictly < 80 nM for this compound? CC1c2nc(N3CCC(Oc4ccc(F)cc4F)CC3)c(NCC(F)F)nc2CCN1C(=O)C(F)F (centres undefined)
**A:** f

**Q:** Hello, I'm reviewing records and need to know if IC50 of CC(=O)N1CCc2nc(N3CCC(Oc4ccc(F)cc4F)CC3)c(NC3CCC3)nc2C1 is below 80 nM. Could you check?
**A:** t

**Q:** Dear reviewer, please state whether CS(=O)(=O)N1CCc2nc(N3CCC(Oc4ccc(F)cc4F)CC3)c(NC3CCC3)nc2C1 has IC50 strictly beneath 80 nM.
**A:** t
